Target: recombinant full-length WRN protein (1-1432) (Homo sapiens, UniProt Q14191)
Construct: recombinant full-length WRN protein (1-1432)
Sequence (Q14191 whole entry): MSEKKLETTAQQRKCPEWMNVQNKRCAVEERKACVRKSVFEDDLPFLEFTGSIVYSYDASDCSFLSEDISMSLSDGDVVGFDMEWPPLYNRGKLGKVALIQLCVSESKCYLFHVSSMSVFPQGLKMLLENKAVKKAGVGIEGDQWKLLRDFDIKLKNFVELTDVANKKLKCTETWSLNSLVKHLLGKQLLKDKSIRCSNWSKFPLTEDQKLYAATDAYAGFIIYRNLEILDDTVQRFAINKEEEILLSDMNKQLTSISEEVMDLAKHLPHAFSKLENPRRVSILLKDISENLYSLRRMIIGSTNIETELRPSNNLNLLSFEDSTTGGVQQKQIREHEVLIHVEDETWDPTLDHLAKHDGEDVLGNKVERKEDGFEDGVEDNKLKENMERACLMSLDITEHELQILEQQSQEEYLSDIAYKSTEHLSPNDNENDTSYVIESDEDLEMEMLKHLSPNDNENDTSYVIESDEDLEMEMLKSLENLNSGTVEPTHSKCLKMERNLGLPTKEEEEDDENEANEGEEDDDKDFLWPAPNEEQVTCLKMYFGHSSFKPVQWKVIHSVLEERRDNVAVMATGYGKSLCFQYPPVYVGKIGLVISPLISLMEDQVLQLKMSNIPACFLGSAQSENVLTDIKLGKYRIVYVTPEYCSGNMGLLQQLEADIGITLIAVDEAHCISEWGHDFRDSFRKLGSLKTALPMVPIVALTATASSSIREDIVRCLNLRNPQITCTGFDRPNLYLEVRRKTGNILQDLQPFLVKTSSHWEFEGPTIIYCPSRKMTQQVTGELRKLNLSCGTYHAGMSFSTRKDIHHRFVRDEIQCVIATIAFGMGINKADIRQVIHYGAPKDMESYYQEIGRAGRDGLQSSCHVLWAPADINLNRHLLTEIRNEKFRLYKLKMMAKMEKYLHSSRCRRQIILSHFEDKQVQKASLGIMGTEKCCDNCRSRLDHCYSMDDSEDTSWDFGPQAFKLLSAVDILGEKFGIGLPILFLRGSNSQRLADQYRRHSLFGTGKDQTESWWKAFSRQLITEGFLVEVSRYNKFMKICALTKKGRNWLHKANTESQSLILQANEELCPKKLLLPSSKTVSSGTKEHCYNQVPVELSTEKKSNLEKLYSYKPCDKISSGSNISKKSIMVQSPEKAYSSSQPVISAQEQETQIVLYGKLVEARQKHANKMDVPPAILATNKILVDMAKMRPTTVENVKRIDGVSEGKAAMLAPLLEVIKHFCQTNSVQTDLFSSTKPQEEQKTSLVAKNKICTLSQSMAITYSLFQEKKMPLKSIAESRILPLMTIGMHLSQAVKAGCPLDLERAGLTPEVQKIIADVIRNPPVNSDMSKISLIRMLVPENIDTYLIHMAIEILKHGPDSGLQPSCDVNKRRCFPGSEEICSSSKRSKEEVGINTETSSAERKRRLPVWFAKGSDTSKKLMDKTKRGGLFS
Assay: WRN unwinding activity, fluorogenic 384-well assay (Example A)
Type: biochemical
Settings: WRN unwinding activity, Table 2
4 hr UNW pIC50 values, listed per item
Respond numerically, and do not add a unit to the figure.

| MOLECULE | 4 hr UNW pIC50 |
| --- | --- |
| Cc1nc2cc(S(=O)(=O)N(C)c3ccc([C@H]4CCC[C@@H](COc5ccc(C(F)(F)F)cc5)[C@@H]4C(=O)O)cc3)cc([C@@H]3CCCNC3)c2n1C.Cl (stereo in doubt) | 5.7 |
| Cc1nc2cc(S(=O)(=O)Nc3ccc([C@H]4CCC[C@@H](C(=O)Nc5ccc(C(F)(F)F)cc5F)[C@@H]4C(=O)O)cc3)ccc2[nH]1 (relative stereo) | 9.2 |
| Cc1nc2cc(S(=O)(=O)N(C)c3ccc([C@H]4C[C@@H](O[C@H]5CCOC5)C[C@@H](C(=O)Nc5ccc(C(F)(F)F)cc5F)[C@@H]4C(=O)O)cc3)ccc2n1C (stereo in doubt) | 7.2 |
| CN(c1ccc([C@H]2CCC[C@@H](C(=O)Nc3ccc(C(F)(F)F)cc3F)[C@@H]2C(=O)O)cc1)S(=O)(=O)c1ccc(-c2ccn(C)n2)cc1 | 8.6 |
| CN(c1ccc([C@H]2CCC[C@@H](C(=O)Nc3ccc(C(F)(F)F)cc3F)[C@@H]2C(=O)O)cc1)S(=O)(=O)c1ccc(-n2cccn2)cc1 | 8.6 |

-- ask Item Cc1nc2cc(S(=O)(=O)N(C)c3ccc([C@H]4CCC[C@@H](C(=O)Nc5ccc(C(F)(F)F)cc5F)[C@@H]4C(=O)O)cc3)cc(C3CCCN(C)C3)c2n1C (relative stereo) has what recorded 4 hr UNW pIC50?
-- reply 9.0
